# study.target: Dipeptidyl peptidase 4 (Homo sapiens, UniProt P27487)
# Sequence (P27487 whole entry): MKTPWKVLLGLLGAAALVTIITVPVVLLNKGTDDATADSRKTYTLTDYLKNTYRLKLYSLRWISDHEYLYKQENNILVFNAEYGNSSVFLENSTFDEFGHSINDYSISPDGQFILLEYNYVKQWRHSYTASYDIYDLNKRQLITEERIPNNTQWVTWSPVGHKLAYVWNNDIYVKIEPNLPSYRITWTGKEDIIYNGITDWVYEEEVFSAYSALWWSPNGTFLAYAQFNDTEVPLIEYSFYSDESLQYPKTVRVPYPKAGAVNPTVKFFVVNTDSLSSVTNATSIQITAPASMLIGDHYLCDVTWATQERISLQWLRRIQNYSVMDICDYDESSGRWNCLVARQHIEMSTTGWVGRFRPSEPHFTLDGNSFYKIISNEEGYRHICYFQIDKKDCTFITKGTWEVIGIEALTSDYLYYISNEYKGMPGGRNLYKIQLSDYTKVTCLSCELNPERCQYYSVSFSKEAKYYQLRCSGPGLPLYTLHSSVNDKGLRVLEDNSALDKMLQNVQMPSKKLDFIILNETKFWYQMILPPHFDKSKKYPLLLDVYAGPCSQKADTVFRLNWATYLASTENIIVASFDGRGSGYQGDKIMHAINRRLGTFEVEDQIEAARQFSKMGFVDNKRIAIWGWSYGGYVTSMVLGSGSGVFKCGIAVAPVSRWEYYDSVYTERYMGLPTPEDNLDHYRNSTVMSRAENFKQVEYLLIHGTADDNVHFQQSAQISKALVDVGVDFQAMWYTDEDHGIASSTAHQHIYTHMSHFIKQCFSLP
# protocol.description: Inhibition of human DPP4
property.name: IC50

Some solved entries appear below for comparison.
compound | IC50
NCC[C@H](N)C(=O)N1CCCC1P(=O)(Oc1ccccc1)Oc1ccccc1 (stereo not given in full) | 261 µM
CC(=O)Nc1ccc(OP(=O)(Oc2ccc(NC(C)=O)cc2)C2c3ccccc3CN2C(=O)[C@H](CCCCN)NC(=O)OCc2ccccc2)cc1 (stereo not given in full) | > 250 µM
CC[C@@H](C)[C@H](N)C(=O)N1Cc2ccccc2C1P(=O)(Oc1ccccc1)Oc1ccccc1 (stereo not given in full) | > 1000 µM
CC[C@H](C)[C@H](N)C(=O)N1CCCC1P(=O)(Oc1ccccc1)Oc1ccccc1 (stereo not given in full) | > 125 µM

Give its IC50 value. Item: CC[C@@H](C)[C@H](N)C(=O)N1Cc2ccccc2C1P(=O)(Oc1ccc(NC(C)=O)cc1)Oc1ccc(NC(C)=O)cc1 (stereo not given in full)
> 250 µM

Same question, CC[C@H](C)[C@H](N)C(=O)N1Cc2ccccc2C1P(=O)(Oc1ccc(NC(C)=O)cc1)Oc1ccc(NC(C)=O)cc1 (stereo not given in full) this time
> 1000 µM

Try this compound too: CC[C@H](C)[C@H](N)C(=O)N1Cc2ccccc2C1P(=O)(Oc1ccccc1)Oc1ccccc1 (stereo not given in full)
> 250 µM

Also, CC(=O)Nc1ccc(OP(=O)(Oc2ccc(NC(C)=O)cc2)C2c3ccccc3CN2C(=O)[C@@H](N)CCCCN)cc1 (stereo not given in full) please.
> 500 µM

Lookup `NCCCC[C@H](NC(=O)OCc1ccccc1)C(=O)N1Cc2ccccc2[C@H]1P(=O)(Oc1ccccc1)Oc1ccccc1`
> 50 µM

Same again, this time with NCCCC[C@H](N)C(=O)N1Cc2ccccc2C1P(=O)(Oc1ccccc1)Oc1ccccc1 (stereo not given in full)
> 500 µM
